- Target Or Test System: human factor XIa (Homo sapiens)
- Sequence (P03951 388-625 limits assumed): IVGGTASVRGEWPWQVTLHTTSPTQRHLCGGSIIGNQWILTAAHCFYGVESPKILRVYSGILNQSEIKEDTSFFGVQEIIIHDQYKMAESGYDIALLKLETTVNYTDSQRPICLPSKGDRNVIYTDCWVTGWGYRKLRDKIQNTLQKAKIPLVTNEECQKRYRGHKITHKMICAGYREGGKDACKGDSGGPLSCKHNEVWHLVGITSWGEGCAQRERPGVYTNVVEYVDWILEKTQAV
- Sequence (P03951 19-387 partner limits assumed): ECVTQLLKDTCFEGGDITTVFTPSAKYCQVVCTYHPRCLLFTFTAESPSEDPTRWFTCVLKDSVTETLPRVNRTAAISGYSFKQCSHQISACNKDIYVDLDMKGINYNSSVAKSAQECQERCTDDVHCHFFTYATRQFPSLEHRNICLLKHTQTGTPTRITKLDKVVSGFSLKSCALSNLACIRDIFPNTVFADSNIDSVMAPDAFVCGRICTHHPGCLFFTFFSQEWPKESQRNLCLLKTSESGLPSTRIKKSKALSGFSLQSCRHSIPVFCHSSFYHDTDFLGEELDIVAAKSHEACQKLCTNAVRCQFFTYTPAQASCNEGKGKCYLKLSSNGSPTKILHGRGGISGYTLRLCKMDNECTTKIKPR
Recorded Endpoint: Ki (nM)

These recorded examples may help you get a feel for the data.
| Structure | Ki / nM |
| --- | --- |
| N=C(N)c1ccc(CNC(=O)[C@H](CCCCNC(=O)OCc2ccccc2)NC(=O)[C@@H](CC2CCCCC2)NS(=O)(=O)Cc2ccccc2)cc1 | 340 |
| N=C(N)c1ccc(CNC(=O)[C@H](CCCCNC(=O)COCC(=O)NCCOCCOCCOCCOCCOCCOCCOCCN)NC(=O)[C@@H](CC2CCCCC2)NS(=O)(=O)Cc2ccccc2)cc1 | 230 |
| N=C(N)NCC[C@@H](NS(=O)(=O)Cc1ccccc1)C(=O)NCC(=O)NCc1ccc(C(=N)N)cc1 | 490 |
| CC(C)(C)OC[C@@H](NS(=O)(=O)Cc1ccccc1)C(=O)N[C@@H](CO)C(=O)NCc1ccc(C(=N)N)cc1 | 200 |

[a] N=C(N)c1ccc(CNC(=O)CNC(=O)[C@@H](Cc2cccc(C(=N)N)c2)NS(=O)(=O)Cc2ccccc2)cc1
[b] N=C(N)c1ccc(CNC(=O)[C@H](CCCCNC(=O)COCC(=O)NCCOCCOCCOCCOCCOCCOCCOCCN)NC(=O)[C@@H](CO)NS(=O)(=O)Cc2ccccc2)cc1
Query: Return label of the item with the larger Ki. Candidates: a , b . Please respond with the label that marks your chosen entry.
Reply: b

---

Target or system UniProt:P00735; recorded quantity pKi.
pKi: −log10 of the molar value.
Recorded Endpoint: pKi

| Molecule | Endpoint Result |
| --- | --- |
| CC(C)(C)OC[C@@H](NS(=O)(=O)Cc1ccc(C(=O)O)cc1)C(=O)NCC(=O)NCc1ccc(C(=N)N)cc1 [Inhibitor 46] | 5.66 |
| N=C(N)c1ccc(CNC(=O)[C@H](CCCCN)NC(=O)[C@@H](CC2CCCCC2)NS(=O)(=O)Cc2ccccc2)cc1 [Inhibitor 53] | 8.00 |

[A] N=C(N)c1ccc(CNC(=O)[C@H](CCc2ccccc2)NC(=O)[C@@H](CO)NS(=O)(=O)Cc2ccccc2)cc1 [Inhibitor 19]
[B] CC(C)(C)OC[C@@H](NS(=O)(=O)Cc1ccccc1)C(=O)N[C@@H](CCCNC(=N)N)C(=O)NCc1ccc(C(=N)N)cc1 [Inhibitor 37]
Query: Hi there, can you help? I need to know whether A or B has lower measured pKi. Please respond with the label that marks your chosen entry.
Reply: A
(A: 5.92, B: 7.19)

[I] N=C(N)c1ccc(CNC(=O)[C@H](CCCCNC(=O)COCC(=O)NCCOCCOCCOCCOCCOCCOCCOCCN)NC(=O)[C@@H](CO)NS(=O)(=O)Cc2ccccc2)cc1 [Inhibitor 88]
[II] C[C@@H](OCc1ccccc1)[C@H](NC(=O)[C@@H](COC(C)(C)C)NS(=O)(=O)Cc1ccccc1)C(=O)NCc1ccc(C(=N)N)cc1 [Inhibitor 39]
Query: Hi there, can you help? I need to know whether I or II has lower measured pKi. Please respond with the label that marks your chosen entry.
Reply: I

---

- Target Or Test System: plasma kallikrein (PK) (Homo sapiens, UniProt P03952)
- Sequence (P03952 391-638 limits assumed, species assumed): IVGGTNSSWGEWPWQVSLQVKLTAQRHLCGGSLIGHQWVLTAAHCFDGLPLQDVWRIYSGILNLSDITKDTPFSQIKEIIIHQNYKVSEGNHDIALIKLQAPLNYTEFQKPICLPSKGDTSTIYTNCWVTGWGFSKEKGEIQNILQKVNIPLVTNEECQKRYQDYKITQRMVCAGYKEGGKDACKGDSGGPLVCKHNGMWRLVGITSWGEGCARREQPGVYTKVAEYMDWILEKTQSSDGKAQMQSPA
- Sequence (P03952 20-390 partner limits assumed, species assumed): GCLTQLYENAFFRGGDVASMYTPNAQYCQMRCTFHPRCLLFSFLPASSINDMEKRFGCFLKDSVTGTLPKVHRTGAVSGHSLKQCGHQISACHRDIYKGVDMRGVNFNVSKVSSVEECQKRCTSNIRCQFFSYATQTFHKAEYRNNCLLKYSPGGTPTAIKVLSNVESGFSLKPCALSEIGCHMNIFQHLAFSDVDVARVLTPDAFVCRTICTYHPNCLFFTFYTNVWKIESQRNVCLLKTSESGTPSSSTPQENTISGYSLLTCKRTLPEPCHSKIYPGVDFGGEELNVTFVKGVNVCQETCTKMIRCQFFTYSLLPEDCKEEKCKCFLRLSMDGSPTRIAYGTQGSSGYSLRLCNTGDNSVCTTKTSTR
- Test Description: Determining the inhibitory constants: inhibition of PK (substrate Bzl-Pro-Phe-Arg-pNA)
- Reported Conditions: Tris buffer pH 8.0, 25° C.; mean of at least three determinations
Recorded Endpoint: Ki (nM)

These recorded examples may help you get a feel for the data.
| Structure | Reading Unit | Ki |
| --- | --- | --- |
| N=C(N)c1ccc(CNC(=O)CNC(=O)[C@@H](CCc2ccc(O)cc2)NS(=O)(=O)Cc2ccccc2)cc1 | nM | 120 |
| N=C(N)c1ccc(CNC(=O)CNC(=O)[C@@H](Cc2cccc(C(=N)N)c2)NS(=O)(=O)Cc2ccccc2)cc1 | nM | 82 |
| N=C(N)NCc1cccc(C[C@@H](NS(=O)(=O)Cc2ccccc2)C(=O)NCC(=O)NCc2ccc(C(=N)N)cc2)c1 | nM | 75 |
| N=C(N)c1ccc(CNC(=O)[C@H](COCc2ccccc2)NC(=O)[C@@H](CO)NS(=O)(=O)Cc2ccccc2)cc1 | nM | 25 |
| COC(=O)c1ccc(CS(=O)(=O)N[C@H](CO)C(=O)NCC(=O)NCc2ccc(C(=N)N)cc2)cc1 | nM | 4200 |

[A] CC(C)(C)OC[C@@H](NS(=O)(=O)Cc1ccccc1)C(=O)NCC(=O)NCc1ccc(C(=N)N)cc1
[B] CC(C)(C)OC[C@@H](NS(=O)(=O)Cc1ccccc1)C(=O)N[C@@H](Cc1c[nH]cn1)C(=O)NCc1ccc(C(=N)N)cc1
Query: Hi there, can you help? I need to know whether A or B has lower measured Ki. Please respond with the label that marks your chosen entry.
Reply: B
(B: 14 nM, A: 340 nM)
